Biological target: T1, human BDCA2 (human, UniProt Q8WTT0 1-213)
T1 construct: whole, on cells; also called hBDCA2; Blood dendritic cell antigen 2
T1 sequence (looked up): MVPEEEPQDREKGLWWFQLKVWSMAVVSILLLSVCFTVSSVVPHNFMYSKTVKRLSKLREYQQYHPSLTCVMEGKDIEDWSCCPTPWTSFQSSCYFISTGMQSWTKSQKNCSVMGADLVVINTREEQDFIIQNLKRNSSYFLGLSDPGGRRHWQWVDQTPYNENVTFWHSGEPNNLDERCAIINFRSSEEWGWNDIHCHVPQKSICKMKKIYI
Experiment: FACS on CHOK1-hBDCA2 cells; EC50 table under the plot, unit from the x axis (nM) [continued) d.]
Reported EC50 values for the following binders.
Just the number please, in nM, no unit attached.

INSERT INTO measurements (binder, units_of_measure, obs_value) VALUES
  ('mAb030 (antibody, V domains shown, Mouse hybridoma antibody) VH: DVQLQESGPGLVKPSQSLSLTCSVTGYSITSAYYWNWIRQFPGNKLECMGYISYDGSNYYNPSLKNRISITRDTSKNQFFLSLNSVTTEDTATYFCVRGGDYDDGGFAYWGQGTLVTVSA VL: DIQMTQSPASLSASVGETVTITCRASGNIHNYLAWYQQKQGKSPQLLVYNAKTLADGVPSRFSGSGSETQYSLKINSLQPEDFGNYFCQHFWIIPYTFGGGTKLEIK', 'nM', 0.293),
  ('mAb020 (antibody, V domains shown, Mouse hybridoma antibody) VH: DVQLQESGPGLVKPSQSLSLTCSVTGYSIASGYYWNWIRQFPGNKLEWMGYISFDGTYNYNPSLKDRFSITRDTSKNQFFLKLNSVTTEDTATYYCARGVDYPNAIDWWGQGTSVTVSS VL: DIVLTQSPASLAVSLGQRATISCRASESVSMHVTHLIHWYQQKPGQPPKLLIYVASNLESGVPARFSGSGSETDFTLNIHPVEEEDAATYFCQQSFEDPWTFGGGTKLEIK', 'nM', 0.707);

Task item: Given mAb027 (antibody, V domains shown, Mouse hybridoma antibody) VH: DVQLQESGPGLVKPSQSLSLTCSVTGYSITSAYYWNWVRQFPGNQLECMGYITYDGSNNYNPSLKNRISITRDTSKNQFFLKLNSVTTEDTATYYCVRGGDYDDGGFAYWGQGTLVTVSA VL: DIQMTQSPASLSASVGETVTITCRASGNIHNYLAWYQQKQGKSPQLLVYNAKTLVDGVPSRFSGSGSGTEYSLKINSLQPEDFGIYFCQHFWIIPYTFGGGTKLEIR , respond with its EC50.
Reply: 0.302

Task item: Look up and report measured EC50 for this entry: mAb028 (antibody, V domains shown, Mouse hybridoma antibody) VH: DVQLQESGPGLVKPSQSLSLTCSVTGYSISSGYYWNWIRQFPGNKLECMGYISYDGSNYYNPSLKNRISITRDTSKNQFFLSLNSVTTEDTATYFCVRGGDYDDGGFAYWGQGTLVTVSA VL: DIQMTQSPASLSASVGETVTITCRASGNIHNYLAWYQQKQGKSPQLLVYNAKTLADGVPSRFSGSGSETQYSLKINSLQPEDFGNYFCQHFWIIPYTFGGGTKLEIK
Reply: 0.251

Task item: Please give the documented EC50 of mAb022 (antibody, V domains shown, Mouse hybridoma antibody) VH: DVQLQESGPGLVKPSQSLSLTCSVTGYSITSGYYWNWIRQFPGNKLEWMGYISFDGTYNYNPSLKDRFSITRDTSKNQFFLKLNSVTTEDTATYYCARGVDYPKAMDWWGQGTSVTVSS VL: DIVLTQSPASLAVSLGQRATISCRASESVSMHVTHLIHWYQQKPGQPPKLLIYVASNLESGVPARFSGSGSETDFTLNIHPVEEEDAATYFCQQSFEDPWTFGGGTKLEIK
Reply: 0.723

Hello, the source for this data is patent US20250346673A1, in case you need it.
